assay: physchem; details: ethanol, organic solvent or mixture, solubility, in ethanol
MEASUREMENT_TYPE: solubility

Tell me the measured solubility of CCC[S+]([O-])c1ccc2[nH]c(NC(=O)OC)nc2c1 (stereo not shown) [albendazole sulfoxide] , please. 179 mg/mL

* * *

assay: Solubility; conditions: pH 9.6
MEASUREMENT_TYPE: solubility
Quote the value and follow it with the unit of measurement.

Form field: reported solubility of COc1ccc2c(c1)c(CC(=O)O)c(C)n2C(=O)c1ccc(Cl)cc1 30 mg/mL

* * *

assay: physchem; conditions: water, aqueous solubility
Each entry below lists one item and its recorded solubility value.

Recorded results for 2 compounds are shown here.
[
  {
    "COMPOUND": "CCCSc1ccc2nc(NC(=O)OC)[nH]c2c1",
    "READING": "< 100 µg/mL"
  },
  {
    "COMPOUND": "CN(C)[C@@H]1C(=O)C(C(N)=O)=C(O)[C@@]2(O)C(=O)C3=C(O)c4c(O)cccc4[C@@](C)(O)[C@H]3[C@H](O)[C@@H]12",
    "READING": "~1000 µg/mL"
  }
]

Give its solubility value. Item: CCC[S+]([O-])c1ccc2[nH]c(NC(=O)OC)nc2c1 (stereo not drawn) [albendazole sulfoxide] 420 µg/mL
